System: SK-MEL-1;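 note: growth inhibition of human SK-MEL-1 cells, read out by a cell viability assay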
Experiment: cells
Assay type: functional, cell-based, Homo sapiens
Conditions: Homo sapiens, SK-MEL-1
Description: SANGER: Inhibition of human SK-MEL-1 cell growth in a cell viability assay.

- smiles string: "COC(=O)[C@H](CCSC)NC(=O)c1ccc(NC[C@@H](N)CS)cc1-c1ccccc1"
  IC50: "> 1.02 µM"
- smiles string: "OC[C@H](Cc1ccccc1)Nc1nc(Oc2ccc3c(c2)CCC3)nc2c1ncn2Cc1ccc(-c2ccccc2)cc1"
  IC50: "> 10.2 µM"
- smiles string: "C/C(=C\\c1csc(C)n1)[C@@H]1C[C@@H]2O[C@]2(C)CCC[C@H](C)[C@H](O)[C@@H](C)C(=O)C(C)(C)[C@@H](O)CC(=O)O1"
  IC50: "> 0.032 µM"

====

System: RXF 393;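 note: growth inhibition of human RXF 393 cells, read out with a cell viability assay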
Assay: cells
Type: functional, cell-based, Homo sapiens
Settings: Homo sapiens, RXF 393
Description: SANGER: Inhibition of human RXF393 cell growth in a cell viability assay.

- molecule: "Nc1ccccc1NC(=O)c1ccc(CNC(=O)OCc2cccnc2)cc1"
  unit annotation: "µM"
  qualifier operator: ">"
  IC50: 5
- molecule: "CC1=C(/C=C/C(C)=C/C=C/C(C)=C/C(=O)O)C(C)(C)CCC1"
  unit annotation: "µM"
  qualifier operator: ">"
  IC50: 10
- molecule: "COc1cc(N2CCC(N3CCN(C)CC3)CC2)ccc1Nc1ncc(Cl)c(Nc2ccccc2S(=O)(=O)C(C)C)n1"
  unit annotation: "µM"
  qualifier operator: "="
  IC50: 0.558
- molecule: "C=CC(=O)N1CCCC(Nc2nc(Nc3ccc(N(C)C(=O)CC)cc3)nc3[nH]cnc23)C1 (stereo unspecified)"
  unit annotation: "µM"
  qualifier operator: ">"
  IC50: 10.2
- molecule: "NC1(c2ccc(-c3nc4ccn5c(=O)[nH]nc5c4cc3-c3ccccc3)cc2)CCC1"
  unit annotation: "µM"
  qualifier operator: "="
  IC50: 2.6
- molecule: "COc1ccc(-c2cc3nccn3c(Nc3ncccc3C(N)=O)n2)cc1OC"
  unit annotation: "µM"
  qualifier operator: "="
  IC50: 6.81

====

System: 697
Test: cells
Assay type: functional, cell-based, Homo sapiens
Description: SANGER: Inhibition of human 697 cell growth in a cell viability assay.
Where a SMILES comes first, the peptide text is derived from it. The star is where a group is joined. Cbz = O=C(OCc1ccccc1)*
recorded metric: IC50

- molecule: "CC(C)C[C@@H](C=O)NC(=O)[C@H](CC(C)C)NC(=O)[C@H](CC(C)C)NC(=O)OCc1ccccc1 [MG-132] (Cbz-Leu-Leu-Leu-aldehyde)"
  recorded metric: "IC50"
  result: "> 1 µM"

====

Entries and their IC50
Test system: NCI-H1522
Assay: cells
Format: functional, cell-based, Homo sapiens
Conditions: Homo sapiens, NCI-H1522
Description: SANGER: Inhibition of human NCI-H1522 cell growth in a cell viability assay.
recorded metric: IC50

- molecule: "C[C@@H](Oc1cc(-c2cnn(C3CCNCC3)c2)cnc1N)c1c(Cl)ccc(F)c1Cl"
  result: "> 2 µM"
- molecule: "C=CC(=O)N1CCCC(Nc2nc(Nc3ccc(N(C)C(=O)CC)cc3)nc3[nH]cnc23)C1 (centres undefined)"
  result: "> 10.2 µM"
- molecule: "C/C(=C\\c1csc(C)n1)[C@@H]1C[C@@H]2O[C@]2(C)CCC[C@H](C)[C@H](O)[C@@H](C)C(=O)C(C)(C)[C@@H](O)CC(=O)O1"
  result: "> 0.032 µM"
- molecule: "Cc1ccc(NC(=O)c2ccc(CN3CCN(C)CC3)cc2)cc1Nc1nccc(-c2cccnc2)n1"
  result: "> 2 µM"
